Assay: MTT cell viability assay, Hep G2 cells (serum-free DMEM)
Conditions: human, Hep G2 cells, Cell viability, CAO 5 μM alone, 96 hr
VALUE TYPE: viability at 96 h, 5 μM (%)
Report only the number, with the unit % understood.

QUERY: Quick check: viability at 96 h, 5 μM of "CCCCCCCCOC(=O)/C=C/c1ccc(O)c(O)c1" ?
RESULT: 16.2

###

Assay: MTT cell viability assay, Hep G2 cells (serum-free DMEM)
Settings: human, Hep G2 cells, Cell viability, LOV 5 μM, 72 hr, Table 4
VALUE TYPE: viability at 72 h, 5 μM (%)
Reply numerically in %, unit not repeated.

QUERY: Requested field: viability at 72 h, 5 μM. Item: "CC[C@H](C)C(=O)O[C@H]1C[C@@H](C)C=C2C=C[C@H](C)[C@H](CC[C@@H]3C[C@@H](O)CC(=O)O3)[C@H]21"
RESULT: 80.9

###

Experiment: MTT cell viability assay, Hep G2 cells (serum-free DMEM)
Conditions: human, Hep G2 cells, Cell viability, lovastatin 10 μM alone, 96 hr, Table 25
VALUE TYPE: viability at 96 h, 10 μM (%)
The reply should contain only the number, in %.

QUERY: Give the measured viability at 96 h, 10 μM of "CC[C@H](C)C(=O)O[C@H]1C[C@@H](C)C=C2C=C[C@H](C)[C@H](CC[C@@H]3C[C@@H](O)CC(=O)O3)[C@H]21" .
RESULT: 50.3

###

Test: MTT cell viability assay, Hep G2 cells (serum-free DMEM)
Conditions: human, Hep G2 cells, Cell viability, taxol 2 nM alone, 96 hr, Table 10
VALUE TYPE: viability at 96 h, 2 nM (%)
Enter your answer as a number in %; do not include the unit.

QUERY: Could you tell me which viability at 96 h, 2 nM is on file for "CC(=O)O[C@H]1C(=O)[C@@]2(C)[C@H]([C@H](OC(=O)c3ccccc3)[C@]3(O)C[C@H](OC(=O)[C@H](O)[C@@H](NC(=O)c4ccccc4)c4ccccc4)C(C)=C1C3(C)C)[C@]1(OC(C)=O)CO[C@@H]1C[C@@H]2O" ?
RESULT: 72.4

Where do the numbers come from? From patent US20020173538A1.
